target: APE1 (Homo sapiens); construct: made in house; test: in-house high-throughput in vitro biochemical assay for APE1 endonuclease activity (fluorescence-based); settings: listed as APE1 Inhibitor III
Sequence (P27695 whole entry): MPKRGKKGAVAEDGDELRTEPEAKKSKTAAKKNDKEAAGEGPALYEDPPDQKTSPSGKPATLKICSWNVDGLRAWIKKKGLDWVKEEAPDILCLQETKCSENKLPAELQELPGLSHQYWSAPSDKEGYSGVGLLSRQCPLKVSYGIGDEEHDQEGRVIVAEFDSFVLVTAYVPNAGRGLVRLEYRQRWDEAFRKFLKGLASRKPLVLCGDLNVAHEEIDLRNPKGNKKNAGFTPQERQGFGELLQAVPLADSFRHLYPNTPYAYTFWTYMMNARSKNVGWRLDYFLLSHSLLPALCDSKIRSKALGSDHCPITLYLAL
ENDPOINT: IC50

[[record]]
compound = "CC(=O)Nc1sc2c(c1-c1nc3ccccc3s1)CCN(C(C)C)C2 [Inhibitor III]"
measured_value = "~2 µM"

